B1: MBOAT1 peptide 17-32 (Lysophospholipid acyltransferase 1), 16-mer library wild type / NSP3 ADRP (ORF1ab Nsp3b ADRP, residues 1023-1192) (parent)
chain 1: STYLHPLSELLGIPLD
chain 2: not shown

Variants of: B1
Conditions: with NSP3 ADRP (ORF1ab Nsp3b ADRP, residues 1023-1192); bait immobilised on MaxiSorp plates (10 µg), library pre-cleared on GST, 2 h binding at 4 °C, five washes; one round per day, days 1-4; value from days 2 and 3; keep out of graded; scale: average fractional NGS count over selection days 2 and 3
endpoint_name: screen value
Output spec: single numeric token, no unit.

Ask: Which screen value is reported for this variant? chain 1 G12N
Result: 5.25e-05

Ask: Fill in: screen value of chain 1 L4D is ___
Result: 0

Ask: I am curious: what screen value value has been reported for chain 1 I13N ?
Result: 3.03e-05

Ask: Any idea what its screen value is? The variant is chain 1 I13L
Result: 0.00192

Ask: State the recorded screen value for this entry: chain 1 T2E
Result: 1.15e-05

Ask: What value of measured screen value is listed for chain 1 S8G ?
Result: 0

Ask: If you can, please state the reported screen value value of chain 1 L7I .
Result: 0

Ask: screen value for chain 1 L10M ?
Result: 0.000281

Ask: Need screen value, item chain 1 L15E
Result: 0

Ask: So what does the record say about screen value for chain 1 S1W ?
Result: 0.000263

Ask: So what's the measured screen value for this one? chain 1 Y3W
Result: 0

Ask: Which screen value is listed for chain 1 G12D ?
Result: 0

Ask: I'd like to know its screen value. The variant in question is chain 1 S1V
Result: 0.000869

Ask: Which screen value is listed for chain 1 Y3L ?
Result: 0

Ask: Consider the variant chain 1 T2Y and give its measured screen value.
Result: 0.00544

Ask: Record request: screen value value, item chain 1 E9S
Result: 0

Ask: Consider the variant chain 1 L10K and give its measured screen value.
Result: 0

Ask: Fill in: screen value of chain 1 T2R is ___
Result: 0

Ask: Given the entry chain 1 H5I , report its measured screen value.
Result: 0

Ask: Recorded screen value for chain 1 P14Y , please?
Result: 1.08e-05

Ask: Could you share which screen value value was measured for chain 1 Y3I ?
Result: 0

Ask: Name the reported screen value value associated with the variant chain 1 L10H
Result: 3e-05

Ask: // query screen value value for entry chain 1 T2Q
Result: 4.36e-05

Ask: Dear colleague, I am looking for the recorded screen value of the following variant: chain 1 T2A
Result: 0.000138

Ask: Which screen value value is on record for chain 1 L15M ?
Result: 0.000121

Ask: Fill in: screen value of chain 1 L11M is ___
Result: 1.65e-05
